Test system: NCI-H522 lung
Experiment: NCI tumour cell line growth inhibition, 48 h
Exercise: state measured TGI for each of the molecules provided.
One number for each entry, in µM.

Example entries begin here.
molecule: CCOc1ccc(N=NC2C(=O)N(C(=O)CC(=O)Nc3ccccc3OC)N=C2C)cc1 (stereo not drawn)
system name: NCI-H522 lung
unit text: µM
TGI: 55.3
//
molecule: COc1cc(NS(C)(=O)=O)ccc1Nc1c2ccc(Cl)cc2nc2c(OC)cccc12
system name: NCI-H522 lung
unit text: µM
TGI: 2.12
//
molecule: COc1cccc(C2c3cc4c(cc3OC(C)(O)C2C)OCO4)c1O (stereo not drawn)
system name: NCI-H522 lung
unit text: µM
TGI: 5.6
//
molecule: CC[C@@H](C(=O)[C@@H](C)[C@@H](O)[C@H](C)[C@@H]1O[C@@H]([C@@H](CC)C(=O)O)CC[C@@H]1C)C1O[C@]2(C=CC(=O)[C@]3(CC[C@@](C)([C@H]4CC[C@](O)(CC)[C@H](C)O4)O3)O2)[C@H](C)C[C@@H]1C (stereo partly drawn)
system name: NCI-H522 lung
unit text: µM
TGI: 3.64

Okay, next one:
Cc1cc(N2CCCCC2)nc(N(CCCNc2ccnc3cc(Cl)ccc23)Cc2ccco2)n1 yielded TGI of 7.69

----------
System: HL-60(TB) leukemia
Experiment: NCI tumour cell line growth inhibition, 48 h
Exercise: state measured TGI for each of the compounds provided.
Numbers only, in µM.

Example entries begin here.
compound: COc1cc(C(=O)c2ccc3c(c2)OCO3)cc(OC)c1OC
unit text: µM
numeric readout: 9.02
--
compound: O=C(Nc1ccccc1O)c1cccc(NC2=C(Cl)C(=O)N(Cc3ccccc3)C2=O)c1
unit text: µM
numeric readout: 8.5
--
compound: CCOc1ccc(N=NC2C(=O)N(C(=O)CC(=O)Nc3ccccc3OC)N=C2C)cc1 (stereo not given)
unit text: µM
numeric readout: 22.5

For every item in the list below, what is its measured TGI?
1. O=[N+]([O-])c1ccc(Br)c([N+](=O)[O-])c1
2. CCCN(CCC)C(=O)C1=Cc2ccc(-c3ccc(C(=O)N4CCCC4)cc3)cc2N=C(N)C1

Resp:
1: 3.54; 2: 15.6

----------
Test system: HCC-2998 colon
Assay: NCI tumour cell line growth inhibition, 48 h
quantity: TGI

molecule: COc1cc(C2c3cc4c(cc3OC(NC3CCCCC3)C2C)OCO4)cc(OC)c1OC (configuration not stated)
system name: HCC-2998 colon
quantity: TGI
result: 4.22 µM
//
molecule: COc1ccc2cc(C(C)C(O)c3cc(F)c(F)c(F)c3F)ccc2c1 (configuration not stated)
system name: HCC-2998 colon
quantity: TGI
result: > 100 µM
//
molecule: CCN(CC)CC(=O)Nc1c(C(N)=O)nnn1Cc1cc(Cl)c(C(=O)c2ccc(Cl)cc2)c(Cl)c1
system name: HCC-2998 colon
quantity: TGI
result: 32.1 µM
//
molecule: COc1cc(C(=O)c2ccc3c(c2)OCO3)cc(OC)c1OC
system name: HCC-2998 colon
quantity: TGI
result: > 100 µM
//
molecule: CC(=O)OC(/C=C1/C=CC(=O)O1)COC(=O)c1ccccc1 (configuration not stated)
system name: HCC-2998 colon
quantity: TGI
result: > 31.2 µM

For every item in the list below, what is its measured TGI?
1. CS(=O)(=O)NNS(=O)(=O)c1cccc([N+](=O)[O-])c1
2. Nc1ccccc1CCCC(=O)O
3. CC1C(=O)OC2CC[N+]3(CC(=O)c4ccc(Br)cc4)CC=C(COC(=O)C(C)(O)C1(C)O)C23 (configuration not stated)
4. COc1cc(/C=C2/C(=O)N(C(=O)OC(C)C)C(Cc3cc(OC)c(OC)c(C)c3OC)C(=O)N2Cc2ccccc2)c(OC)c(C)c1OC (configuration not stated)
5. Cc1c(Cl)ccc2c1NC(=O)C2(O)C(C(=O)c1ccccc1)c1ccccc1 (configuration not stated)
6. C/C(=C\C(C)COCc1ccccc1)[C@H](COCc1ccccc1)OCc1ccccc1 (some centres not stated)
7. O=[N+]([O-])C(Cl)C(Cl)C(Cl)=C(Cl)Cl (configuration not stated)

Resp:
1: > 100 µM; 2: > 100 µM; 3: > 375 µM; 4: > 100 µM; 5: > 100 µM; 6: > 100 µM; 7: > 56.7 µM

For every item in the list below, what is its measured TGI?
1. [O-]c1c2c(nn1-c1ccccc1)c1ccccc1c[n+]2Cc1ccccc1
2. Cc1cc(C)nc(NS(=O)(=O)c2ccc(Nc3nncc(=O)n3N)cc2)n1
3. CC(=N/NC(=S)N1CCCCC1)/C(=N\NC(=S)N1CCCCC1)c1ccccc1
4. CCCCCCCC1(N=[N+]=[N-])C(=O)c2ccccc2N(C)C1=O (configuration not stated)
5. CCN1CCC(O)(c2ccc(C)cc2)C(C(=O)c2ccc(C)cc2)C1 (configuration not stated)
6. CC(C)=CCC[C@H](C)[C@@H]1CC[C@]2(C)C3CC[C@]4(OC4(C)C)C(CCCO)[C@]3(C)CC[C@@]12C (some centres not stated)

Resp:
> 100 µM
80.7 µM
4.48 µM
> 100 µM
> 100 µM
22.5 µM

For every item in the list below, what is its measured TGI?
1. COc1cc2cc(C(=O)N3CC(CCl)c4c3cc([N+](=O)[O-])c3ccccc43)[nH]c2c(OC)c1OC (configuration not stated)
2. C/C=C/c1c(O)c(=O)c2c(OC)cc(OC)c3c4c(OC)cc(OC)c5c(=O)c(O)c(/C=C/C)c(c1c23)c54

Resp:
> 100 µM
> 100 µM

----------
System: MOLT-4 leukemia
Test: NCI tumour cell line growth inhibition, 48 h
quantity: TGI

Example entries begin here.
compound: CC(=O)N1c2ccccc2C23CCN(C)CC4C(C)OCC(C4CC2=O)C13 (stereo unspecified)
system name: MOLT-4 leukemia
quantity: TGI
result: > 100 µM
--
compound: COc1cc(C(=O)c2ccc3c(c2)OCO3)cc(OC)c1OC
system name: MOLT-4 leukemia
quantity: TGI
result: > 75.1 µM
--
compound: C=CC(Cl)(CBr)CCC(Br)=C(C)C (stereo unspecified)
system name: MOLT-4 leukemia
quantity: TGI
result: > 100 µM
--
compound: CC1=NN(c2nc(N)nc(CCl)n2)CC1
system name: MOLT-4 leukemia
quantity: TGI
result: 68.9 µM
--
compound: COc1ccccc1OCC(=O)Nc1sc2c(c1C(N)=O)CCC2
system name: MOLT-4 leukemia
quantity: TGI
result: > 100 µM

CC(=O)c1cccc(NC(=O)/C(=N\NC(C)(C)C)c2c(O)c3ccccc3oc2=O)c1 yielded TGI of > 100 µM

----------
Exercise: state measured TGI for each of the compounds provided.
Test system: NCI-H23 lung
Experiment: NCI tumour cell line growth inhibition, 48 h

Example entries begin here.
compound: COc1ccc2c(=O)c(C)c(-c3ccccc3)oc2c1CN(C)C
quantity: TGI
result: > 100 µM

compound: CN(C)c1ccc(N2Cc3ccccc3OC3=C2C(=O)c2c(O)ccc(O)c2C3=O)cn1
quantity: TGI
result: 0.927 µM

compound: COc1ccc2c(c1)c(-c1ccc(-c3cn(S(=O)(=O)c4ccccc4)c4ccc(OC)cc34)s1)cn2S(=O)(=O)c1ccccc1
quantity: TGI
result: > 100 µM

compound: COc1cc(O)c2c(O)c3c(c4c2c1[C@]1(C4)C(C)=CCCC1(C)C)[C@H](O)[C@@]1(O)CC(=O)C(C(N)=O)=C(O)[C@@]1(O)C3=O
quantity: TGI
result: 1.34 µM

compound: N#Cc1ccc(Oc2nc3ccccc3nc2-c2ccccc2)cc1
quantity: TGI
result: > 100 µM

compound: CC1=NN(C(=O)CC(=O)Nc2ccccc2C)C(=O)C1N=Nc1ccc(C(=O)O)cc1 (stereo not drawn)
quantity: TGI
result: > 100 µM

compound: C/C=C(\C)C(=O)N[C@H]1CC[C@]2(C)C3CC[C@@]4(C)C(CC[C@@H]4C(C)N(C)C)C3CCC2[C@H]1OC(C)=O (stereo partly drawn)
quantity: TGI
result: 5.01 µM

compound: CC(C)=CC1C(COC(=O)c2cc3c(cc2Cl)OCO3)C1(C)C (stereo not drawn)
quantity: TGI
result: > 100 µM

compound: O=c1[nH]c(Nc2ccc(F)c(Cl)c2)nc2nc[nH]c12
quantity: TGI
result: > 100 µM

compound: C[C@@H]1CN(C(=O)c2ccc(NC(=O)c3cc(O[C@H](C)c4c(Cl)ccc(F)c4Cl)c(N)nn3)cc2)C[C@H](C)N1
quantity: TGI
result: 20.6 µM

For every item in the list below, what is its measured TGI?
1. Oc1ccc(-c2nnc3sc(-c4ccc(F)c(Oc5ccccc5)c4)nn23)cc1
2. CS(=O)(=O)NNS(=O)(=O)c1cccc([N+](=O)[O-])c1

Resp:
1: 92.2 µM; 2: > 100 µM
